Where do these numbers come from? They come from PubChem BioAssay (NCI).

// growth lookup, one value per entry
Tested on: OVCAR-8 ovarian
Assay: NCI-60 one-dose screen, 48 h (100 = growth as untreated, 0 = no growth, -100 = all killed)
Conditions: 10 µM unless noted
About 83,000 compounds went through this panel and 20% of them were active in at least one assay; those are over-represented in the sample as a whole.
Give your result in % as a bare value.

Here are 5 molecules together with their reported answers.
{"MOLECULE": "CC(NNC(C)c1ccccc1)c1ccccc1 (configuration not stated)", "growth / %": 115}
{"MOLECULE": "CNc1ccc(Br)c2c1C(=O)c1ccccc1C2=O", "growth / %": 105}
{"MOLECULE": "COc1cc(C2NN=C3c4ccccc4CCC32)cc(OC)c1OC (configuration not stated)", "growth / %": 70.3}
{"MOLECULE": "O=S(=O)(NCCCNc1nccc(-n2ccc3cccnc32)n1)c1cccc(C(F)(F)F)c1", "growth / %": 105}
{"MOLECULE": "CN(C)CCCC(C#N)c1ccccc1 (configuration not stated)", "growth / %": 112}

The measured growth associated with `CCN(CC)CCCNc1nccc2ccc(Cl)cc12` reads 94.8

For record `Cn1ccc(=O)c(S(N)(=O)=O)c1` the listed growth is 101

Entry under test: `O=C(/C=C/c1cc(-c2ccc3c(c2)OCO3)n[nH]1)c1ccc2c(c1)OCO2` . Its growth was 86.9

Recorded growth (molecule `CN1CCN(Cc2ccc(NC(=O)c3nc4ccc5[nH]ncc5c4c4c3CCC4)cc2C(F)(F)F)CC1` ): -53.8

Summary for this molecule, `O=[N+]([O-])c1ccc(-c2cn(-c3ccccc3)c(-c3ccccc3)n2)cc1` : growth is 70.6

Query `C=C[C@@H]1C[C@@H]2Cc3cc(F)ccc3N1O2` yields growth of 114

get_value(item= `COc1cc(-c2nn(-c3cccc(NC(=O)Nc4ccc(Cl)c(Cl)c4)c3)cc2-c2ccncc2)ccc1Cl` , readout=growth) returns -17.2

---

Test system: 786-0 renal
Assay: NCI-60 one-dose screen, 48 h (100 = growth as untreated, 0 = no growth, -100 = all killed)
Conditions: 10 µM unless noted
This is part of a sample that, as a whole, favours compounds with a hit. Of some 83,000 tested, about 20% had one in any assay.
Decide by growth: equal to or exceeding 50% means Criterion met, less means Criterion not met.

Examples with answers:
{"COMPOUND": "CN1CCN(Cc2ccc(NC(=O)c3nc4ccc5[nH]ncc5c4c4c3CCC4)cc2C(F)(F)F)CC1", "ASSIGNED CLASS": "Criterion not met"}
{"COMPOUND": "NC(=O)c1c(NC(=S)Nc2ccc(OC(F)(F)F)cc2)sc2c1CCC1(C2)OCCO1", "ASSIGNED CLASS": "Criterion met"}
{"COMPOUND": "CCOC(=O)/C(C#N)=C1/C(=O)Nc2ccccc21", "ASSIGNED CLASS": "Criterion met"}
{"COMPOUND": "CCN(CC)CCC(CNc1c2ccc(Cl)cc2nc2ccc(OC)cc12)c1ccccc1 (configuration not stated)", "ASSIGNED CLASS": "Criterion not met"}
{"COMPOUND": "O=C(Nc1ccc(NCCN2CCOCC2)nc1)c1ccc([N+](=O)[O-])cc1", "ASSIGNED CLASS": "Criterion met"}
{"COMPOUND": "O=C(CN1CCN(c2cc3c(cc2F)c(=O)c(C(=O)N/N=C/c2ccccc2O)cn3C2CC2)CC1)N/N=C\\c1ccccc1O", "ASSIGNED CLASS": "Criterion not met"}
{"COMPOUND": "CCOC(=O)C1CCNC(=O)C1=O (configuration not stated)", "ASSIGNED CLASS": "Criterion met"}
{"COMPOUND": "CCN(CC)c1ccc(/C=C2\\Oc3ccc(O)c(I)c3C2=O)cc1", "ASSIGNED CLASS": "Criterion met"}
{"COMPOUND": "COc1ccc(C2=Nn3c(nnc3-n3nc(C)cc3C)SC2)cc1", "ASSIGNED CLASS": "Criterion not met"}
{"COMPOUND": "CC(C)(C)n1cc(-c2ccnc(NCCNS(=O)(=O)c3ccc(Cl)cc3)c2)c(-c2cccc(O)c2)n1", "ASSIGNED CLASS": "Criterion met"}

Qu. hey, is growth for this one >= 50%? `COc1cc(/C(C#N)=C/c2ccc3c(c2OC)OCO3)cc2c1OCO2`
Ans. Criterion not met

Qu. Assess whether reported growth for CCN(CC)CCC(CNc1ccnc2cc(Cl)ccc12)c1ccc(Cl)cc1 (configuration not stated) sits at 50% or higher.
Ans. Criterion not met

---

Test system: K-562 leukemia
Assay: NCI-60 one-dose screen, 48 h (100 = growth as untreated, 0 = no growth, -100 = all killed)
Settings: 10 µM unless noted
Compounds without any hit were thinned out: in the full panel of roughly 83,000, 20% have a hit.
Quick rule for you: growth at 20% or higher means MET, lower means NOT MET.

{"MOLECULE": "CCO/C=N/C1=C(C#N)C(c2ccc(Cl)cc2)c2c(c3ccc(C)cc3[nH]c2=O)O1 (stereo unspecified)", "ASSIGNED CLASS": "MET"}
{"MOLECULE": "COc1cccc(CC(C)=C(c2ccc(OCCN(C)C)cc2)c2ccc(OCCN(C)C)cc2)c1", "ASSIGNED CLASS": "NOT MET"}

Qu. Is reported growth greater than or equal to 20% here: `COc1cc(-c2nn(C(=O)NS(=O)(=O)c3ccccc3)cc2-c2ccncc2)ccc1Cl`
Ans. MET

Qu. Record CC12CCCC(CC(=O)c3[nH]c4ccccc4c31)C2 (stereo unspecified) ; criterion: growth no lower than 20%. Met?
Ans. NOT MET

Qu. Determine whether measured growth meets or exceeds 20% for `Cc1ccc(S(=O)(=O)NCCNc2nccc(-c3c(-c4cccc(N)c4)nc4sccn34)n2)cc1`
Ans. MET

Qu. Could you please find out whether `CN(C)CCOC(=O)Nc1ccccc1Cl` has growth that meets 20% or exceeds it?
Ans. MET

Qu. For this molecule, is measured growth 20% or higher? `COc1ccc(-c2[nH]nc(N)c2-c2cc(OC)c3c(c2)OCO3)cc1`
Ans. MET

Qu. Hello, I need to know if `Cc1cccc(/C=N/Nc2cc(C)c3cccc(C)c3n2)n1` has measured growth not below 20%. Thanks!
Ans. MET

Qu. API: above_or_equal(metric=growth, cutoff=20%) for item CN(C)c1oc(C2OC2c2ccccc2)nc1C#N (stereo unspecified)
Ans. MET

Qu. hey, is growth for this one >= 20%? `N=C(N)c1ccc(-c2ccc(-c3cncc4ccccc34)s2)cc1F`
Ans. NOT MET

Qu. Would you say NC1=C(/C(N)=N/O)C(c2ccccc2)c2ccc3ccccc3c2O1 (stereo unspecified) shows growth at minimum 20%?
Ans. NOT MET

---

Test system: OVCAR-5 ovarian
Test: NCI-60 one-dose screen, 48 h
Conditions: 10 µM unless noted
The panel holds about 83,000 compounds, 20% with a hit somewhere; the sample as a whole holds those more often. The source made the active and inactive calls. How the source made its calls: active means growth percent below 10; inactive means the rest.
Can you answer with just one of these options? 1 (yes) (active), 0 (no) (inactive)

{"COMPOUND": "O=C(/C=C\\c1cccc([N+](=O)[O-])c1)/C=C/c1cccc([N+](=O)[O-])c1", "ASSIGNED CLASS": "0 (no)"}
{"COMPOUND": "c1coc(CNc2ccnc(Nc3ccc(OCCN4CCCCC4)cc3)n2)c1", "ASSIGNED CLASS": "0 (no)"}
{"COMPOUND": "NC(=S)N/N=C1\\CCCC(C(F)(F)F)C1 (configuration not stated)", "ASSIGNED CLASS": "0 (no)"}
{"COMPOUND": "Cn1c2ccc(Br)cc2c2c3c(c4c5ccccc5[nH]c4c21)C(=O)N(O)C3=O", "ASSIGNED CLASS": "1 (yes)"}
{"COMPOUND": "CN(C)CCOC(=O)Nc1ccccc1Cl", "ASSIGNED CLASS": "0 (no)"}

Qu. Query: recorded result category for `N=C(N)c1ccc(-c2cc(Cl)cc(Cl)c2)cn1` in this test
Ans. 0 (no)

Qu. What is the recorded call for this compound in the test? `CCCCCc1cc[n+](CC(=O)c2ccc([N+](=O)[O-])cc2)cc1`
Ans. 0 (no)

Qu. Test call for this compound, please: `Cc1ccc2ccccc2c1C[n+]1ccccc1`
Ans. 0 (no)

Qu. For `COc1ccc2cc(-c3ccc(-c4ccc(C(=N)N)cc4)s3)ccc2c1` , which call appears in the assay record?
Ans. 0 (no)

Qu. Status in this test for CSc1nc2c(c(=O)[nH]1)C(c1ccc(C)cc1)C=C(C(=O)O)N2 (configuration not stated) ?
Ans. 0 (no)

Qu. # lookup: test call for `COc1ccc(C(=O)N2NC(=O)/C(=C/c3ccccc3F)N=C2c2ccccc2)cc1`
Ans. 0 (no)

Qu. Answer briefly: the call reported for `N/C(=N\C(N)=N\c1nc2ccccc2s1)c1ccncc1` in this assay.
Ans. 0 (no)

Qu. Fill in: this test's call for `COc1ccc(S(=O)(=O)NCCCNc2nccc(-n3ccc4cccnc43)n2)cc1` is ___
Ans. 0 (no)

Qu. What outcome does the record of this test show for `Cc1cc(N/N=C/c2nc(-c3ccccc3)oc2C)c2cc(Br)ccc2n1` ?
Ans. 0 (no)

Qu. Which outcome did this test record for the compound O=S1(=O)CCC(N(/N=C/c2ccco2)c2ccccc2)C1 (configuration not stated) ?
Ans. 0 (no)

Qu. Query: recorded result category for `FC(F)(F)c1ccccc1-c1cn2c(ccc3ccccc32)n1` in this test
Ans. 0 (no)

Qu. # fetch the recorded call for `COc1ccc(S(=O)(=O)Nc2cc(/C=C\c3cc(OC)c(OC)c(OC)c3)cc(OC)c2OC)cc1` here
Ans. 0 (no)
